Target: MRGPRX4 (Homo sapiens, UniProt Q96LA9)
Sequence (Q96LA9 whole entry): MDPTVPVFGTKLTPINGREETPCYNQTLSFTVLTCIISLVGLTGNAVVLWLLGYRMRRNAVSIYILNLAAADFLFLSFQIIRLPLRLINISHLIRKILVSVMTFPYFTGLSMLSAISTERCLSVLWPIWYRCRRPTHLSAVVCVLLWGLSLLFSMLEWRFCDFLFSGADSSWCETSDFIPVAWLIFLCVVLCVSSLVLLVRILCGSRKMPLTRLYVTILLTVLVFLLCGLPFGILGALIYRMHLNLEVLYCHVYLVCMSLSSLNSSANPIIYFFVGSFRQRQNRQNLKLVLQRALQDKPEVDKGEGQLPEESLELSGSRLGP
Assay: MRGPR X4 antagonist activity, IP-One Gq HTRF assay in stably transfected HEK cells (versus agonist bilirubin, deoxycholic acid, conjugated bilirubin, urobilin, obeticholic acid or BAR502)
Assay type: cell-based
Parameters: expressed in transfected cells; host or cells: HEK cells, stably transfected
Conditions: versus 10 μM Bilirubin agonist; HEK cells expressing human MRGPR X4; read-out: MRGPR4 Antagonist Activity
measurementLabel: IC50

Reference set, count: 6
{"compound": "Cc1cc(-n2cccc2)ccc1OCc1cccc(C(=O)O)c1F [Compound 4-27]", "IC50": "100 to 500 nM"}
{"compound": "CN(C)CCNC(=O)c1cccc(COc2ccc(C(F)(F)F)cc2Cl)c1 [Compound 52-17]", "IC50": "500 to 1000 nM"}
{"compound": "Cc1ccc(OCc2cccc(C(=O)O)c2)c(Cl)c1Cl [Compound 1-143]", "IC50": "< 100 nM"}
{"compound": "CCOC(=O)c1cccc(COc2ccc(C(F)(F)F)cc2Cl)c1F [Compound 56-1]", "IC50": "100 to 500 nM"}
{"compound": "CC(=O)c1ccc(OCc2cccc(C(=O)O)c2)cc1 [Compound 1-54]", "IC50": "> 2500 nM"}
{"compound": "Cc1ccc(OCc2cccc(C(=O)O)c2)cc1F [Compound 1-89]", "IC50": "100 to 500 nM"}

Enquiry: Would you please give the reported IC50 of N#Cc1cc(CCc2ccc(C(F)(F)F)cc2Cl)cc(C(=O)O)c1 [Compound 61-1] with MRGPRX4 (Homo sapiens, UniProt Q96LA9)?
Return: 100 to 500 nM

Enquiry: Write down measured IC50 (MRGPRX4 (Homo sapiens, UniProt Q96LA9)) for this compound. O=S(=O)(O)c1cccc(COc2ccc(C(F)(F)F)cc2Cl)c1 [Compound 40-1]
Return: 500 to 1000 nM

Enquiry: Give IC50 for this entry on MRGPRX4 (Homo sapiens, UniProt Q96LA9): Cc1cc(COc2ccc(C(F)(F)F)cc2C)cc(C(=O)O)c1 [Compound 4-11]
Return: < 100 nM

----------
Reported values of IC50 for individual entries
Biological target: MRGPRX4 (Homo sapiens, UniProt Q96LA9)
Experiment: MRGPR X4 antagonist activity, IP-One Gq HTRF assay in stably transfected HEK cells (versus agonist bilirubin, deoxycholic acid, conjugated bilirubin, urobilin, obeticholic acid or BAR502)
Assay type: cell-based
Set-up: expressed in transfected cells; host or cells: HEK cells, stably transfected
Conditions: versus 10 μM Bilirubin agonist; HEK cells expressing human MRGPR X4; read-out: MRGPR4 Antagonist Activity

Example entries and their recorded answers appear below.
{"compound": "O=C1CC(c2cccc(COc3ccc(C(F)(F)F)cc3Cl)c2)N1 (stereo not shown)", "measValue": "500 to 1000 nM"}
{"compound": "N#Cc1ccc(OCc2cccc(C(=O)O)c2)c(C(F)(F)F)c1", "measValue": "100 to 500 nM"}
{"compound": "NC(=O)c1cccc(COc2cccc(Cl)c2Cl)c1 [Compound 13-1, 3-((2,3-dichlorophenoxy)methyl)benzamide]", "measValue": "> 2500 nM"}

# ---- query compound ----
Enquiry: For the compound "COC(=O)c1cccc(COc2ccc(C#N)cc2Cl)c1" , give its measured IC50 value.
Return: 1000 to 2500 nM

----------
Biological target: MRGPRX4 (Homo sapiens, UniProt Q96LA9)
Assay: MRGPR X4 antagonist activity, IP-One Gq HTRF assay in stably transfected HEK cells (versus agonist bilirubin, deoxycholic acid, conjugated bilirubin, urobilin, obeticholic acid or BAR502)
Format: cell-based
Parameters: expressed in transfected cells; host or cells: HEK cells, stably transfected
Conditions: versus 20 μM obeticholic acid; read-out: IC50 (Obeticholic Acid Agonist)
pIC50: −log10 of the molar value.
measurementLabel: pIC50

Sample answers from the record:
{"compound": "O=C(O)c1cc(COc2ccc(C(F)(F)F)cc2Cl)ccc1F [Compound 1-85]", "pIC50": 7.82}
{"compound": "O=C(O)c1cccc(COc2ccc(Cl)cc2C(F)(F)F)n1 [Compound 1-31]", "pIC50": 8.30}
{"compound": "O=C(O)c1cc(F)cc(COc2ccc(C(F)(F)F)cc2Cl)c1 [Compound 1-65]", "pIC50": 7.64}
{"compound": "N#Cc1cc(COc2ccc(Cl)cc2Cl)cc(C(=O)O)c1 [Compound 5-1]", "pIC50": 8.22}
{"compound": "CCc1cc(COc2ccc(C(F)(F)F)cc2Cl)nc(C(=O)O)c1 [Compound 42-3]", "pIC50": 8.15}

1 = O=C(O)c1cccc(COc2ccc(Cl)cc2Cl)n1 [Compound 1-115]
2 = Clc1ccc(OCc2cccc(-c3nnn[nH]3)c2)c(Cl)c1Cl [Compound 17-4]
3 = O=C(O)c1cccc(COc2ccc(C(F)(F)F)cc2Cl)n1 [Compound 1-56]
4 = N#Cc1cc(COc2ccc(C(F)(F)F)cc2Cl)cc(C(=O)O)c1 [Compound 32-1]
Enquiry: Sort entries by pIC50 from minimum to maximum value. Hello, could you send the labels back in the order asked? Thank you.
Return: 1, 3, 2, 4
(1: 7.33, 3: 7.62, 2: 8.10, 4: 8.52)

----------
Molecular target: MRGPRX4 (Homo sapiens, UniProt Q96LA9)
Experiment: MRGPR X4 antagonist activity, IP-One Gq HTRF assay in stably transfected HEK cells (versus agonist bilirubin, deoxycholic acid, conjugated bilirubin, urobilin, obeticholic acid or BAR502)
Type: cell-based
Design: expressed in transfected cells; host or cells: HEK cells, stably transfected
Conditions: versus 10 μM Bilirubin agonist; read-out: IC50 (Bilirubin agonist)
pIC50: −log10 of the molar value.
measurementLabel: pIC50

Before answering, review these 2 worked examples.
{"compoundStructureString": "O=C(O)c1cc(COc2ccc(C(F)(F)F)cc2Cl)ccc1F", "measurementLabel": "pIC50", "measValue": 7.70}
{"compoundStructureString": "O=C(O)c1cccc(COc2ccc(Cl)cc2Cl)n1", "measurementLabel": "pIC50", "measValue": 7.09}

I = O=C(O)c1cccc(COc2ccc(Cl)cc2Cl)c1
II = Cc1cc(COc2ccc(C(F)(F)F)cc2C)cc(C(=O)O)c1
III = O=C(O)c1cccc(COc2ccc(C(F)(F)F)cc2Cl)c1F
Enquiry: Order the records by pIC50, with each subsequent value no larger than the one before. Your task in answering is to list the labels in the requested order.
Return: III, II, I

----------
Target: UniProt:Q96LA9
Assay: In vitro activation (agonism) of MRGPRX4, IP-One Gq HTRF assay
Conditions: read-out: agonist activity against MRGPRX4
Experimental: Metabolites of heme (bilirubin, biliverdin, urobilin, urobilinogen, and stercobilin) were analyzed for in vitro activation of MRGPRX4. Cells were plated in a 384-well assay plate at 20,000 cells per well in 12 μL of Opti-MEM and kept in an incubator overnight. […] The plate was read on a Molecular Devices SpectraMax iD5 plate reader. The HTRF ratio was calculated from the raw data and graphed using GraphPad Prism to calculate an IC50 value for each compound.
measurementLabel: EC50 (µM)
Quick reminder: number only, in µM, skip the unit.

Enquiry: For the compound CC[C@H]1[C@@H](O)[C@@H]2[C@H](CC[C@]3(C)[C@@H]([C@H](C)CCO)CC[C@@H]23)[C@@]2(C)CC[C@@H](O)C[C@@H]12 [BAR502] , give its reported EC50.
Return: 5.7

----------
Target: MRGPRX4 (Homo sapiens, UniProt Q96LA9)
Assay: MRGPR X4 antagonist activity, IP-One Gq HTRF assay in stably transfected HEK cells (versus agonist bilirubin, deoxycholic acid, conjugated bilirubin, urobilin, obeticholic acid or BAR502)
Assay type: cell-based
Parameters: expressed in transfected cells; host or cells: HEK cells, stably transfected
Conditions: versus 10 μM Bilirubin agonist; HEK cells expressing human MRGPR X4; read-out: MRGPR4 Antagonist Activity
pIC50: −log10 of the molar value.
measurementLabel: pIC50

Examples with answers:
{"compound": "Cc1cc(-c2ccccc2)ccc1OCc1cccc(C(=O)O)c1 [Compound 1-51]", "experimentalTarget": "MRGPRX4 (Homo sapiens, UniProt Q96LA9)", "pIC50": "5.60 to 6.00"}
{"compound": "O=C(O)c1cc(COc2ccc(Cl)cc2Cl)ccc1F [Compound 4-3]", "experimentalTarget": "MRGPRX4 (Homo sapiens, UniProt Q96LA9)", "pIC50": "6.30 to 7.00"}
{"compound": "N#Cc1cc(COc2ccc(Cl)c(Cl)c2Cl)cc(C(=O)O)c1 [Compound 32-3]", "experimentalTarget": "MRGPRX4 (Homo sapiens, UniProt Q96LA9)", "pIC50": "> 7.00"}
{"compound": "O=C(O)c1cccc(COc2ccc(OC(F)(F)F)c(Cl)c2)n1 [Compound 1-129]", "experimentalTarget": "MRGPRX4 (Homo sapiens, UniProt Q96LA9)", "pIC50": "> 7.00"}

Proceed to the following item.
Enquiry: Specify reported pIC50 for the compound shown: Cc1c(Cl)cccc1OCc1cccc(C(=O)O)c1 [Compound 1-95]
Return: 6.30 to 7.00
